B1: BEX1 (parent)
chain: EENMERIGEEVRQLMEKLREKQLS

Variants of: B1
Assay: protein stability index of a GFP-peptide fusion (GPS, HEK-293T) (PSI 1-6); higher = more stable;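 also: lentivirally expressed fusions sorted by FACS into six bins by GFP to DsRed ratio, PSI derived from sequencing read proportions per bin multiplied by bin number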
Conditions: c terminus: a fixed tail appended
Measurement label: protein stability index

Please give the measured protein stability index for this variant: `V11K`
5.09

Please give the measured protein stability index for this variant: `V11M`
4.63

Please give the measured protein stability index for this variant: `M15W`
3.71

Please give the measured protein stability index for this variant: `R19S`
4.21

Please give the measured protein stability index for this variant: `E9N`
4.02

Please give the measured protein stability index for this variant: `E9D`
3.63

Please give the measured protein stability index for this variant: `I7C`
4.87

Please give the measured protein stability index for this variant: `S24Y`
3.91

Please give the measured protein stability index for this variant: `G8Q`
4.36

Please give the measured protein stability index for this variant: `E1D`
2.37

Please give the measured protein stability index for this variant: `N3R`
3.79

Please give the measured protein stability index for this variant: `Q13H`
4.04
